system-tested: CCR8 (Homo sapiens)
Sequence (P51685 whole entry, the tested form may be a part): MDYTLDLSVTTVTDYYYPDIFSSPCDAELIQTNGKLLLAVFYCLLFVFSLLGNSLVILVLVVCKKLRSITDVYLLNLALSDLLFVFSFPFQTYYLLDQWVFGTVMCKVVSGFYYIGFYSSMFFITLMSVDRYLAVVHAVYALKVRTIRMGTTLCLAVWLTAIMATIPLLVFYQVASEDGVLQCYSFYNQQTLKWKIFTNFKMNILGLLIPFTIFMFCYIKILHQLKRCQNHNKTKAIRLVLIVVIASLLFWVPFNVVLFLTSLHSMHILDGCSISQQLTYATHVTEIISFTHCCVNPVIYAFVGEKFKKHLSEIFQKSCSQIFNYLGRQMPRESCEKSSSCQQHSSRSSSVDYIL
test-summary: Tango assay (Tango-CCR8-Gal4-CHO-K1 cells, CCL1-stimulated, ONE-Glo luminescence)
run-parameters: Tango Assay IC50, Inhibition of CCR8 Tango cell in vitro
Counter-ions that a name gives are not always drawn.
# IC50 per record follows
metric-name: IC50 (nM)

Cc1cc(S(=O)(=O)N[C@H](C)C2CCN(C)CC2)ccc1NC(=O)C12CCC(CC1)CC2 : 4.6
Cc1cc(S(=O)(=O)N[C@H](C)C2CCN(C)CC2)ccc1NC(=O)c1ccc(F)cc1C [Compound 276, hydrochloride] : 10
Cc1ccccc1C(=O)Nc1ccc(S(=O)(=O)N[C@H](C)C2CCNCC2)cc1F [Compound 190A, hydrochloride] : 58
Cc1cc(S(=O)(=O)NC(C)C2CCNCC2)ccc1NC(=O)c1ccccc1Cl (stereo not shown) : 30
Cc1ccccc1C(=O)Nc1ccc(S(=O)(=O)N[C@H](C)C2CCNCC2)cc1C1CC1 : 26
Cc1cc(S(=O)(=O)N[C@H](C)C2CCNCC2)ccc1NC(=O)C1CCOCC1 [Compound 212A, hydrochloride] : 2500
Cc1ccccc1C(=O)Nc1ccc(S(=O)(=O)NC(C)C2CCCN(C(=O)OC(C)(C)C)C2)c2ccccc12 (stereo not shown) : 930
Cc1cc(S(=O)(=O)N[C@H](C)C2CCNCC2)ccc1NC(=O)c1ccccc1C [Compound 161A, hydrochloride] : 42
Cc1cc(S(=O)(=O)N[C@H](C)C2CC[N+](C)(C)CC2)ccc1NC(=O)c1ccccc1C : 102
CC(NS(=O)(=O)c1ccc2c(c1)CCC2NC(=O)c1ccccc1)C1CCCCC1 (stereo not shown) : 1100
Cc1ccccc1C(=O)Nc1ccc(S(=O)(=O)NC(C)C(C)(C)C)c2ccccc12 (stereo not shown) : 33
Cc1ccccc1C(=O)Nc1ccc(S(=O)(=O)NC(C)C23CC4CC(CC(C4)C2)C3)c2ccccc12 (stereo not shown) : 0.2
COc1cc(NC(=O)c2ccccc2C)c(C)cc1S(=O)(=O)N[C@H](C)C1CCN(C)CC1 : 17
Cc1ccccc1C(=O)Nc1ccc(S(=O)(=O)N[C@H](C)C2CCNCC2)c(Cl)c1C [Compound 179A, hydrochloride] : 158
Cc1cc(S(=O)(=O)NC(C)C(C)(C)CO)ccc1NC(=O)c1ccccc1C (stereo not shown) : 886
